Reference source for all entries: patent US20210403601A1

- target: T1, Taq DNA polymerase (Thermus aquaticus, UniProt P19821 1-832)
- T1 construct: also called Taq enzyme; Taq DNA enzyme
- T1 sequence (P19821 whole entry): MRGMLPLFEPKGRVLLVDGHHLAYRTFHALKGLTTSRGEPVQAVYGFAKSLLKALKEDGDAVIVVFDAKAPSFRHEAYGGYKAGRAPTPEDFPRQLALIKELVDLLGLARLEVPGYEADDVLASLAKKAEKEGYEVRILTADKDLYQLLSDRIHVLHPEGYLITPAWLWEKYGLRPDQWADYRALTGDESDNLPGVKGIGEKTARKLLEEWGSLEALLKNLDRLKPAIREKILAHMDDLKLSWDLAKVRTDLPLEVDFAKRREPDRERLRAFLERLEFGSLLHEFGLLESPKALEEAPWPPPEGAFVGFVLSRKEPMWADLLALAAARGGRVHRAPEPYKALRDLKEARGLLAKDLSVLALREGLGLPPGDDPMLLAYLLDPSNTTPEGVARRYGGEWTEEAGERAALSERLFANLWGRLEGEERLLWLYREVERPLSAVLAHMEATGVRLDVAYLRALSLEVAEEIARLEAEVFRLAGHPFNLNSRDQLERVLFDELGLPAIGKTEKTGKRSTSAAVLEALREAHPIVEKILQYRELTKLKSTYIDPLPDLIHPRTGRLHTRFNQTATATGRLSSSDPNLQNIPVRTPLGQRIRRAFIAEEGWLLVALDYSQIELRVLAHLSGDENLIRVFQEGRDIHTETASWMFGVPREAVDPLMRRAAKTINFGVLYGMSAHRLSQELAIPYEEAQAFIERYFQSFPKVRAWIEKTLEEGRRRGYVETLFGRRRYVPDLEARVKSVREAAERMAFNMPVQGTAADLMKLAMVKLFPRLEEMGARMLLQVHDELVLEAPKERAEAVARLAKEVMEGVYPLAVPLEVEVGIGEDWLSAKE
- assay method text: AMC sensor, antibody immobilised
Consider the following binders and their measured koff readings.
Give the value, in units of s⁻¹, as a plain number.

binder	unit abbreviation	koff
Mutation 1-38 (antibody, V domains shown, Mutation 1 background; CDRs built) VH: QVQLQQPGAELVKPGASVRLSCQTSVNTFSTYYIYWVKQRPGEGLEWIGGVNPTSGGPVFNEKFKSKATLTVDTSSSTAYMQLSSLTSVDSAVYYCTRSIIRRGYYFDYWGQGTALTVSS VL: DIQMTQTTSSLSASLGDRVTISCRASQDIQNYLNWYQQKPDGTIKLLIYYTSRLNSGIPSRFSGSGSGTDYSLTIANLEQEDIATYFCQQDDTIPLTFGAGTKVELKR	s⁻¹	3.32e-06

Now look at this entry.
Which koff is reported for this binder? Mutation 1-46 (antibody, V domains shown, Mutation 1 background; CDRs built) VH: QVQLQQPGAELVKPGASVRLSCQTSVDTFSTYYIYWVKQRPGEGLEWIGGLNPTSGGPVFNEKFKSKATLTVDTSSSTAYMQLSSLTSVDSAVYYCTRSIVRRGYYFDYWGQGTALTVSS VL: DIQMTQTTSSLSASLGDRVTISCRASQDIQNYINWYQQKPDGTIKLLIYYTSRLNSGIPSRFSGSGSGTDYSLTIANLEQEDIATYFCQQDDTIPITFGAGTKVELKR
2.87e-05
